Target: HLA-A*03:01
Experiment: IEDB peptide-MHC binding, purified MHC/competitive/radioactivity; filed as Kd, often an IC50 or EC50 that approximates it; bounds were set here for any values at or beyond the usual limits of such assays
Conditions: source organism: Vaccinia virus Copenhagen
Observation Type: Kd (µM)
Numbers only; they are read as µM.

| Seq Text | System | Quantity Unit | Kd |
| --- | --- | --- | --- |
| LILSCIFAFI | HLA-A*03:01 | µM | 0.947 |

Now look at this entry.
Value lookup for Kd; key = SLAIKNYYRK
0.0353

----------
Molecular target: HLA-A*03:01
Test: IEDB peptide-MHC binding, purified MHC/competitive/radioactivity; filed as Kd, often an IC50 or EC50 that approximates it; bounds were set here for any values at or beyond the usual limits of such assays
Conditions: source organism: Vaccinia virus WR
Observation Type: pKd
Friendly reminder that pKd comes from taking -log10 of the concentration in mol/L.

These solved cases illustrate the format of a correct answer.
| Seq Text | Observation Type | Assay Result |
| --- | --- | --- |
| QIDRLEDLSK | pKd | 5.84 |
| IFYFISIYSR | pKd | 6.76 |

Value lookup for pKd; key = SMGFKVTTR
5.30

Value lookup for pKd; key = GQRCHFIKK
7.67

Value lookup for pKd; key = VVMAYVGIK
7.73

Value lookup for pKd; key = PSVNEYHMLK
7.99

----------
Target: HLA-B*44:02
Assay: IEDB peptide-MHC binding, purified MHC/competitive/radioactivity; filed as Kd, often an IC50 or EC50 that approximates it; bounds were set here for any values at or beyond the usual limits of such assays
Conditions: source organism: Dengue virus 1 Brazil/97-11/1997
Observation Type: Kd
Your reply should be a number followed by the unit it is expressed in.

| Seq Text | Kd |
| --- | --- |
| AEPDDVDCW | 37.4 nM |
| SEMAEALKG | 14.5 nM |
| LEENMDVEIW | 269 nM |

Now look at this entry.
Value lookup for Kd; key = AGEKALKLSW
576 nM

----------
Molecular target: HLA-B*83:01
Experiment: IEDB peptide-MHC binding, purified MHC/competitive/fluorescence; filed as Kd, often an IC50 or EC50 that approximates it; bounds were set here for any values at or beyond the usual limits of such assays
Conditions: source organism: Mycobacterium tuberculosis variant bovis
Observation Type: Kd

Please state recorded Kd (tested on HLA-B*83:01) of REAPYELNI
≥ 5 µM

----------
Biological target: HLA-A*26:01
Assay: IEDB peptide-MHC binding, purified MHC/competitive/radioactivity; filed as Kd, often an IC50 or EC50 that approximates it; bounds were set here for any values at or beyond the usual limits of such assays
Details: source organism: Mammarenavirus guanaritoense
pKd: −log10 of the molar value.
Observation Type: pKd

Value lookup for pKd; key = TDSPETHHY
≤ 4.11

----------
Target: HLA-A*26:02
Experiment: IEDB peptide-MHC binding, purified MHC/competitive/fluorescence; filed as Kd, often an IC50 or EC50 that approximates it; bounds were set here for any values at or beyond the usual limits of such assays
Conditions: source organism: Mycobacterium tuberculosis C
pKd: −log10 of the molar value.
Observation Type: pKd

Please state recorded pKd (tested on HLA-A*26:02) of AVFPRYHPR
≤ 4.70
